Test system: FAK;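 further: KINOMEscan kinase panel screen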
Construct: gene PTK2
experimental_parameters: concentration: 1 μM, replicates: in singlicate; n = 1
Provide the reported %Inh of each item.

Looking up Cc1c(Cn2c(C)nn3c(=O)cc(N4CCO[C@H](C)C4)nc23)cccc1C(F)(F)F , I see its %Inh listed as 0%

Looking up FC(F)(F)c1ccc(-c2ncn(CCCN3CCOCC3)c2-c2ccncc2)cc1 , I see its %Inh listed as 1%

Looking up COc1cc(Nc2nccc(N3CCC(NC(=O)C(C)c4ccc(Cl)cc4)C3)n2)cc(OC)c1OC (stereo not drawn) , I see its %Inh listed as 0%

Looking up COc1ccc(CNC(=O)NC2CCN(c3ccnc(Nc4ccc(F)cc4)n3)C2)cc1 (stereo not drawn) , I see its %Inh listed as 4%

Looking up CCC(=O)c1c(-c2ccccc2)c2cc(Cl)ccc2c(=O)n1Cc1cc(S(C)(=O)=O)n(CC(N)=O)n1 , I see its %Inh listed as 0%

Looking up Cn1c(=O)c(F)c(Nc2ccc(I)cc2F)c2c(=O)n(OC[C@H](O)CO)cnc21 , I see its %Inh listed as 30%

Looking up COc1ccc(-n2cnc3c(N)ncnc32)cc1 , I see its %Inh listed as 13%

Looking up COc1cc(Nc2nccc(N3CCC(NC(=O)C4COc5ccccc5O4)C3)n2)cc(OC)c1OC (stereo not drawn) , I see its %Inh listed as 0%

Looking up COc1ccc(-c2cc3c(C)nc(N)nc3n([C@H]3CC[C@H](OCCO)CC3)c2=O)cn1 , I see its %Inh listed as 0%

Looking up COc1cc2nccc(Nc3ccc(OCc4ccc(NC(C)=O)cc4)cc3)c2cc1OC.Cl , I see its %Inh listed as 0%

Looking up CN1C(=O)C(Nc2ccccc2)=C(c2ccccc2)C1=O , I see its %Inh listed as 0%

Looking up Cc1cccc(-c2cc(-c3c[nH]nc3-c3ccccn3)ccn2)c1 , I see its %Inh listed as 0%
